Where do the numbers come from? From the RNAGym collection of RNA variant scans (doi:10.1126/science.aae0568).

B1: tRNA (parent)
chain: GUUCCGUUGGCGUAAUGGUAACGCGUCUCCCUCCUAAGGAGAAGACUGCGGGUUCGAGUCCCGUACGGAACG

# Variants of: B1
# MEASUREMENT PROTOCOL: yeast fitness relative to wild type (ratio to wild type); higher = fitter; tRNA-Arg(CCU), competitive growth, 37 C, YPD
Variants at the floor of the assay were thinned out.
yeast fitness overview
READOUT: yeast fitness

[[record]]
variant_code = "U7A G23A C55A C61A"
readout = "yeast fitness"
lt_gt_eq = "≤"
recorded_value = 0.5

[[record]]
variant_code = "C11G C29U C34U C62A U64C C66U"
readout = "yeast fitness"
lt_gt_eq = "≤"
recorded_value = 0.5

[[record]]
variant_code = "G9A A14C A42G C49G U54C G63C A70U"
readout = "yeast fitness"
lt_gt_eq = "≤"
recorded_value = 0.5

[[record]]
variant_code = "C4A G10A A14G C31A"
readout = "yeast fitness"
lt_gt_eq = "≤"
recorded_value = 0.5

[[record]]
variant_code = "A21U U32C A36G A37U U53G"
readout = "yeast fitness"
lt_gt_eq = "≤"
recorded_value = 0.5

[[record]]
variant_code = "A20G C34G U47C"
readout = "yeast fitness"
lt_gt_eq = "≤"
recorded_value = 0.5

[[record]]
variant_code = "G10C C30A C66A"
readout = "yeast fitness"
lt_gt_eq = "≤"
recorded_value = 0.5

[[record]]
variant_code = "A14U U19A G23A A43C A57G U64G"
readout = "yeast fitness"
lt_gt_eq = "≤"
recorded_value = 0.5

[[record]]
variant_code = "C11U G18A A36U G48C"
readout = "yeast fitness"
lt_gt_eq = "≤"
recorded_value = 0.5

[[record]]
variant_code = "G10C G44A A70U"
readout = "yeast fitness"
lt_gt_eq = "≤"
recorded_value = 0.5

[[record]]
variant_code = "U16C A36G G68A"
readout = "yeast fitness"
lt_gt_eq = "="
recorded_value = 0.556

[[record]]
variant_code = "U19C C27A C30U G56C"
readout = "yeast fitness"
lt_gt_eq = "≤"
recorded_value = 0.5

[[record]]
variant_code = "G10A C11A U16G A69G"
readout = "yeast fitness"
lt_gt_eq = "="
recorded_value = 0.538

[[record]]
variant_code = "C24U C29G A43C C55G G68A"
readout = "yeast fitness"
lt_gt_eq = "≤"
recorded_value = 0.5

[[record]]
variant_code = "A21C C30U A43U G48C"
readout = "yeast fitness"
lt_gt_eq = "≤"
recorded_value = 0.5

[[record]]
variant_code = "U64A G68U"
readout = "yeast fitness"
lt_gt_eq = "="
recorded_value = 0.728

[[record]]
variant_code = "A20U C27G C46G C49U"
readout = "yeast fitness"
lt_gt_eq = "≤"
recorded_value = 0.5

[[record]]
variant_code = "C34A C55G G58A U64C A65C"
readout = "yeast fitness"
lt_gt_eq = "≤"
recorded_value = 0.5

[[record]]
variant_code = "C24G A36G U53A"
readout = "yeast fitness"
lt_gt_eq = "="
recorded_value = 0.555

[[record]]
variant_code = "A21U C49A C62G G68U"
readout = "yeast fitness"
lt_gt_eq = "="
recorded_value = 0.626

[[record]]
variant_code = "G17A C31U U54G"
readout = "yeast fitness"
lt_gt_eq = "="
recorded_value = 0.639

[[record]]
variant_code = "A21U G52C"
readout = "yeast fitness"
lt_gt_eq = "≤"
recorded_value = 0.5

[[record]]
variant_code = "C11G A43U G67C"
readout = "yeast fitness"
lt_gt_eq = "="
recorded_value = 0.505

[[record]]
variant_code = "U13G A42C U54A G67C A69U"
readout = "yeast fitness"
lt_gt_eq = "≤"
recorded_value = 0.5

[[record]]
variant_code = "U32A A36C A70G"
readout = "yeast fitness"
lt_gt_eq = "≤"
recorded_value = 0.5

[[record]]
variant_code = "A15C U28A"
readout = "yeast fitness"
lt_gt_eq = "="
recorded_value = 0.622

[[record]]
variant_code = "U3A A21G A65C"
readout = "yeast fitness"
lt_gt_eq = "="
recorded_value = 0.64

[[record]]
variant_code = "C33U A40G"
readout = "yeast fitness"
lt_gt_eq = "="
recorded_value = 0.71

[[record]]
variant_code = "U16A C60U"
readout = "yeast fitness"
lt_gt_eq = "="
recorded_value = 0.805

[[record]]
variant_code = "G25C C29G A43C"
readout = "yeast fitness"
lt_gt_eq = "≤"
recorded_value = 0.5

[[record]]
variant_code = "U7C C24U C30G A45C C61G"
readout = "yeast fitness"
lt_gt_eq = "≤"
recorded_value = 0.5

[[record]]
variant_code = "A36G A45C C66U"
readout = "yeast fitness"
lt_gt_eq = "="
recorded_value = 0.787

[[record]]
variant_code = "A15G G17A C33U G39C C55A G67C"
readout = "yeast fitness"
lt_gt_eq = "="
recorded_value = 0.66

[[record]]
variant_code = "C4U G9A C22A U26A G52C G67A"
readout = "yeast fitness"
lt_gt_eq = "≤"
recorded_value = 0.5

[[record]]
variant_code = "A14C C46A"
readout = "yeast fitness"
lt_gt_eq = "="
recorded_value = 0.641

[[record]]
variant_code = "U7A C34U C66G"
readout = "yeast fitness"
lt_gt_eq = "≤"
recorded_value = 0.5

[[record]]
variant_code = "U8A G18A C34U A42C"
readout = "yeast fitness"
lt_gt_eq = "≤"
recorded_value = 0.5

[[record]]
variant_code = "G25A C33U"
readout = "yeast fitness"
lt_gt_eq = "="
recorded_value = 0.655

[[record]]
variant_code = "U7G U47C"
readout = "yeast fitness"
lt_gt_eq = "="
recorded_value = 0.845

[[record]]
variant_code = "A45U U53G G67A"
readout = "yeast fitness"
lt_gt_eq = "≤"
recorded_value = 0.5

[[record]]
variant_code = "A65U C66G G68C"
readout = "yeast fitness"
lt_gt_eq = "≤"
recorded_value = 0.5

[[record]]
variant_code = "U35G G63A"
readout = "yeast fitness"
lt_gt_eq = "="
recorded_value = 0.7

[[record]]
variant_code = "G9C U16C G51C"
readout = "yeast fitness"
lt_gt_eq = "≤"
recorded_value = 0.5

[[record]]
variant_code = "U28C G41C"
readout = "yeast fitness"
lt_gt_eq = "="
recorded_value = 0.712

[[record]]
variant_code = "C24U A37C G50C"
readout = "yeast fitness"
lt_gt_eq = "="
recorded_value = 0.547

[[record]]
variant_code = "C4A C22G C29U"
readout = "yeast fitness"
lt_gt_eq = "="
recorded_value = 0.556

[[record]]
variant_code = "C27G C31A A69U"
readout = "yeast fitness"
lt_gt_eq = "="
recorded_value = 0.589

[[record]]
variant_code = "C5U A37C A43C A45C"
readout = "yeast fitness"
lt_gt_eq = "≤"
recorded_value = 0.5

[[record]]
variant_code = "C55A C62G G67A"
readout = "yeast fitness"
lt_gt_eq = "≤"
recorded_value = 0.5

[[record]]
variant_code = "U19A C27A A45C"
readout = "yeast fitness"
lt_gt_eq = "="
recorded_value = 0.557

[[record]]
variant_code = "C27U C30U C46G"
readout = "yeast fitness"
lt_gt_eq = "="
recorded_value = 0.558

[[record]]
variant_code = "U8C C22U C29U"
readout = "yeast fitness"
lt_gt_eq = "≤"
recorded_value = 0.5

[[record]]
variant_code = "A43U C61G"
readout = "yeast fitness"
lt_gt_eq = "="
recorded_value = 0.716

[[record]]
variant_code = "U16G G56C"
readout = "yeast fitness"
lt_gt_eq = "≤"
recorded_value = 0.5

[[record]]
variant_code = "U2C G58A G68C"
readout = "yeast fitness"
lt_gt_eq = "="
recorded_value = 0.645

[[record]]
variant_code = "U2A C29A"
readout = "yeast fitness"
lt_gt_eq = "="
recorded_value = 0.625

[[record]]
variant_code = "C27A U64G"
readout = "yeast fitness"
lt_gt_eq = "="
recorded_value = 0.65

[[record]]
variant_code = "G25A C27G C60A"
readout = "yeast fitness"
lt_gt_eq = "≤"
recorded_value = 0.5

[[record]]
variant_code = "U3C A21U G50C A65U"
readout = "yeast fitness"
lt_gt_eq = "≤"
recorded_value = 0.5

[[record]]
variant_code = "C33U A65U"
readout = "yeast fitness"
lt_gt_eq = "="
recorded_value = 0.816

[[record]]
variant_code = "G38C A65U"
readout = "yeast fitness"
lt_gt_eq = "="
recorded_value = 0.723

[[record]]
variant_code = "C31U C49A"
readout = "yeast fitness"
lt_gt_eq = "="
recorded_value = 0.783

[[record]]
variant_code = "A20C G25C C33A C55A"
readout = "yeast fitness"
lt_gt_eq = "≤"
recorded_value = 0.5

[[record]]
variant_code = "A21G C27U G56C"
readout = "yeast fitness"
lt_gt_eq = "="
recorded_value = 0.57

[[record]]
variant_code = "C4U G68C"
readout = "yeast fitness"
lt_gt_eq = "="
recorded_value = 0.963

[[record]]
variant_code = "G6C U7G G17C U53A"
readout = "yeast fitness"
lt_gt_eq = "≤"
recorded_value = 0.5

[[record]]
variant_code = "C27U A65G G68A"
readout = "yeast fitness"
lt_gt_eq = "="
recorded_value = 0.563

[[record]]
variant_code = "C11U G50A G63A A65U"
readout = "yeast fitness"
lt_gt_eq = "≤"
recorded_value = 0.5

[[record]]
variant_code = "A20C C24G"
readout = "yeast fitness"
lt_gt_eq = "="
recorded_value = 0.679

[[record]]
variant_code = "U19G C60U C61G G67A"
readout = "yeast fitness"
lt_gt_eq = "≤"
recorded_value = 0.5

[[record]]
variant_code = "U7C A40G G52A A65C"
readout = "yeast fitness"
lt_gt_eq = "≤"
recorded_value = 0.5

[[record]]
variant_code = "C33A A37U C62A A70C"
readout = "yeast fitness"
lt_gt_eq = "="
recorded_value = 0.605

[[record]]
variant_code = "U7A G10U"
readout = "yeast fitness"
lt_gt_eq = "="
recorded_value = 0.614

[[record]]
variant_code = "G10A U13A G67C"
readout = "yeast fitness"
lt_gt_eq = "≤"
recorded_value = 0.5

[[record]]
variant_code = "A20G G38C A70U"
readout = "yeast fitness"
lt_gt_eq = "="
recorded_value = 0.57

[[record]]
variant_code = "A15G G17A A40C"
readout = "yeast fitness"
lt_gt_eq = "≤"
recorded_value = 0.5

[[record]]
variant_code = "U2A A14C C30U C34G G58C"
readout = "yeast fitness"
lt_gt_eq = "≤"
recorded_value = 0.5

[[record]]
variant_code = "A36G G48A C49U"
readout = "yeast fitness"
lt_gt_eq = "="
recorded_value = 0.606

[[record]]
variant_code = "A40C A45G G63A"
readout = "yeast fitness"
lt_gt_eq = "="
recorded_value = 0.518

[[record]]
variant_code = "A21U U28A U35G G58A C62G"
readout = "yeast fitness"
lt_gt_eq = "≤"
recorded_value = 0.5

[[record]]
variant_code = "G18C U59A"
readout = "yeast fitness"
lt_gt_eq = "="
recorded_value = 0.631

[[record]]
variant_code = "U2A A37C"
readout = "yeast fitness"
lt_gt_eq = "="
recorded_value = 0.833

[[record]]
variant_code = "C24U C55G G63C"
readout = "yeast fitness"
lt_gt_eq = "="
recorded_value = 0.528

[[record]]
variant_code = "G6C U47A C60G"
readout = "yeast fitness"
lt_gt_eq = "≤"
recorded_value = 0.5

[[record]]
variant_code = "U3C G12A"
readout = "yeast fitness"
lt_gt_eq = "="
recorded_value = 0.963

[[record]]
variant_code = "C24A U32A C55A G68C"
readout = "yeast fitness"
lt_gt_eq = "≤"
recorded_value = 0.5

[[record]]
variant_code = "C33U C34A G38C G52A"
readout = "yeast fitness"
lt_gt_eq = "≤"
recorded_value = 0.5

